Target: Hexose transporter 1 (Plasmodium falciparum) (UniProt O97467)
Assay: ST_JUDE_LEISH: Cytotoxicity at 2uM final concentration against transgenic Leishmania Mexicana promastigotes LmPfHT that are glucose transport deficient and complemented with the Plasmodium falciparum hexose transporter. Activity is measured by DNA content using SYBR green in vitro
Type: functional
READOUT_TYPE: inhibition (%)

>>> observed_measurement("Cc1cc(N[C@@H](Cc2ccccc2)C(=O)NCc2cccs2)nc(Nc2ccccc2)n1")
9.21
>>> observed_measurement("COc1ccc(C(=O)Nc2ccc(Nc3nc(C)cc(N(C)C)n3)cc2)c(OC)c1")
6.65
>>> observed_measurement("CCN1CCC(N(Cc2ccc(-c3ccc(C(F)(F)F)cc3)cc2)C(=O)CCCCn2c(CCc3cccc(F)c3F)nc(=O)c3ccccc32)CC1")
-1.15
>>> observed_measurement("CCCN(c1ccc(C(F)(F)F)cc1[N+](=O)[O-])S(=O)(=O)C(c1ccccc1)c1ccc(C(F)(F)F)cc1[N+](=O)[O-] (configuration not stated)")
6.88
>>> observed_measurement("O=C(c1cccc(Cl)c1)N1CCN(c2ccc([N+](=O)[O-])c(NC3CC3)c2)CC1")
2.47
>>> observed_measurement("CCN(CC)/C(=N/C(=N)NCc1cccc(Cl)c1)NCCCCCCN/C(=N\\C(=N)NCc1cccc(Cl)c1)N(CC)CC")
4.83
>>> observed_measurement("Cc1cccc2nc(-c3cccc(-c4cccc(NC(=O)c5ccc(C(N)=O)cc5)c4)c3)[nH]c12")
1.11
>>> observed_measurement("O=C(Nc1cccc(CN2CCCN(Cc3ccccc3)CC2)c1)c1cc2ccccc2s1")
1.24
>>> observed_measurement("Cc1ccc2c(c1)C1(CC(=O)N(CCc3scnc3C)C1=O)C(=O)N2Cc1ccccc1 (configuration not stated)")
3.66
>>> observed_measurement("O=[N+]([O-])c1ccc(C(O)P(=O)(c2ccccc2)c2ccccc2)cc1 (configuration not stated)")
-0.85
>>> observed_measurement("CCCCCN1CCCC1CNS(=O)(=O)c1ccc(C(=O)Nc2ccc(C(F)(F)F)cc2)cc1 (configuration not stated)")
3.41
>>> observed_measurement("Cc1ccc(/C=C2/SC(=Nc3ccccc3)NC2=O)c(C)c1")
12.1
>>> observed_measurement("COc1cccc(C(=O)NCCOc2ccccc2)c1Oc1ccccc1")
5.7
>>> observed_measurement("Cc1noc(-c2ccccc2)c1CN1CCCC2(CC(C(=O)NCc3cccc(F)c3F)=NO2)C1 (configuration not stated)")
-0.09
>>> observed_measurement("COc1ccc2nccc([C@@H](O)CN3CCC(NCc4cnc5c(c4)NC(=O)CS5)CC3)c2c1")
4.54
>>> observed_measurement("CN1CCC(N(Cc2ccc(-c3ccc(C(F)(F)F)cc3)cc2)C(=O)Cn2c(SCc3cccc(F)c3F)cc(=O)c3c2CCC3)CC1")
0.12
>>> observed_measurement("c1ccc2cc3c(Nc4ccc(N5CCCCC5)cc4)ccnc3cc2c1")
4.37
>>> observed_measurement("CCC(CC)N1CCN(CC(=O)Nc2ccc([N+](=O)[O-])cc2C(=O)Nc2cccc(OC)c2)CC1")
1.8
>>> observed_measurement("COc1cc2nc(N3CCC(CNC(=O)c4ccc(-c5ccc(-c6noc(C)n6)cc5)cc4)CC3)nc(N)c2cc1OC")
45.5
>>> observed_measurement("COc1ccc2nccc([C@@H](O)CN3CCC(NCc4cc5c(Cl)cccc5[nH]4)CC3)c2c1")
14.7
>>> observed_measurement("Fc1ccc2cc(C=Cc3ccncc3)[nH]c2c1")
4.09
>>> observed_measurement("CCOC(=O)c1cc(Cl)cc(Cl)c1OCCCON1C(=N)N=C(N)NC1(C)C")
0.77
>>> observed_measurement("CC(C)CCN1CCCN(Cc2ccc(C(=O)Nc3ccc(C(C)(C)C)cc3)cc2)CC1")
1.37
>>> observed_measurement("Cc1noc(C)c1-c1cccc(CNCc2cccc(-c3cccc(-c4nc5cc(C(F)(F)F)ccc5[nH]4)c3)c2)c1")
1.85
>>> observed_measurement("Cc1ccc(O)cc1Nc1ccnc2ccc(-c3cccc(CN(C)C)c3)cc12")
-2.77
>>> observed_measurement("CC(C)(c1ccccc1)c1ccc(O)c(CN2CCOCC2)c1")
-1.3
>>> observed_measurement("Cc1cc(N2CCC(NS(=O)(=O)c3cccc4cccnc34)CC2)nc(Nc2cccc(C#N)c2)n1")
54.4
>>> observed_measurement("Cc1ccc(NC(=O)Nc2ccccc2F)cc1-c1ccc(C(=O)Nc2ccncc2)cc1")
1.06
>>> observed_measurement("CC(=O)Oc1cc(C)ccc1C1CCN(CCCCNC(=O)c2ccc(NC(=O)c3ccc(Cl)cc3)cc2)CC1")
1.07
>>> observed_measurement("C=CCNC(CCCCC)c1ccc(OCCOc2ccc(C(CCCCC)NCC=C)cc2)cc1 (configuration not stated)")
11.9
>>> observed_measurement("O=C(Nc1nccs1)c1cc(-c2cccnc2)nc2ccc(Br)cc12")
-0.8
>>> observed_measurement("CCOC(=O)c1c(C)n(-c2ccc(Cl)cc2)c2ccc(OC(=O)C=Cc3ccccc3)cc12")
5.54
>>> observed_measurement("COc1cccc2cc(C(=O)N[C@@H](CC(C)C)C(=O)N[C@H](C=NN3CCOC3=O)CC(C)C)oc12")
4.14
>>> observed_measurement("CC(CC(=O)NCC1(c2ccc(F)cc2Cl)CCOCC1)C(=O)c1ccc(Cl)cc1 (configuration not stated)")
1.23
>>> observed_measurement("Nc1ncc(-c2ccc3nccc(-c4ccncc4)c3c2)cc1S(=O)(=O)N1CCCCC1")
11.3
>>> observed_measurement("Cc1cc(F)ccc1-c1nc(N(C)CCN(C)C(=O)N(C)c2ccccc2)nc2c1ccc(=O)n2-c1c(F)cccc1F")
3.18
>>> observed_measurement("Cc1cc(OCCCN2CCC(NS(=O)(=O)c3ccc(C(F)(F)F)cc3)CC2)c2ccccc2n1")
0.36

---

Biological target: Solute carrier family 2, facilitated glucose transporter member 1 (Homo sapiens)
Assay: ST_JUDE_LEISH: Cytotoxicity at 2uM final concentration against transgenic Leishmania Mexicana promastigotes LmGLUT1 that are glucose transport deficient and complemented with the human glucose transporter GLUT1. Activity is measured by DNA content using SYBR green in vitro
Type: functional
READOUT_TYPE: inhibition (%)

>>> observed_measurement("CS(=O)(=O)NCCCNCc1cccc(-c2ccc(-c3nc4cc(C(F)(F)F)ccc4[nH]3)cc2)c1")
7.6
>>> observed_measurement("CCc1c[nH]c2c(N3CCCC3=O)cc(C(=O)N[C@@H](Cc3ccccc3)[C@H](O)CNC(C)(C)c3cccc(OC)c3)cc12")
-0.15
>>> observed_measurement("COc1ccc2nccc([C@@H](O)CN3CCC(NCc4ccc5nsnc5c4)CC3)c2c1")
0.12
>>> observed_measurement("Cc1cc(-c2cccc(CNC3CCN(C)CC3)c2)ccc1S(=O)(=O)NCCc1ccccn1")
0.29
>>> observed_measurement("CC(C)(CNCc1ccccc1)c1nc(-c2ccc(Cl)c(O)c2)c(-c2ccncc2)[nH]1")
4.28
>>> observed_measurement("CC(CN1CCN(C)CC1)C(=O)Nc1cccc(-c2ccc(-c3nc4cc(C(F)(F)F)ccc4[nH]3)cc2)c1 (centres undefined)")
5.29
>>> observed_measurement("COc1ccc2nccc([C@@H](O)CN3CCC(NCc4cc5ccccc5o4)CC3)c2c1")
10.1
>>> observed_measurement("Cc1nc(N)nc(N)c1CCCOc1ccccc1Br")
5.7
>>> observed_measurement("Cc1ccc(NC(=O)c2cc(Br)cc(N3CCC(N(C)C)CC3)c2)cc1F")
7.55

---

Target: Solute carrier family 2, facilitated glucose transporter member 1 (Homo sapiens)
Experiment: ST_JUDE_LEISH: Cytotoxicity at 2uM final concentration against transgenic Leishmania Mexicana promastigotes LmGLUT1 that are glucose transport deficient and complemented with the human glucose transporter GLUT1. Activity is measured by DNA content using SYBR green in vitro
Assay type: functional
READOUT_TYPE: inhibition (%)

>>> observed_measurement("Cc1cccc2nc(-c3cccc(-c4ccc(NC(=O)COC(C)C)cc4)c3)[nH]c12")
-3.18
>>> observed_measurement("Fc1ccc2[nH]cc(CCNCc3ccc(-c4cccc(-c5nc6ccccc6[nH]5)c4)cc3)c2c1")
4.9
>>> observed_measurement("Cc1ccc(Nc2cc(C)nn2-c2nc(C)cc(O)n2)cc1")
75.4
>>> observed_measurement("CCCC(=O)Nc1ccc(OCCCN(Cc2ccccc2C(F)(F)F)c2ccc(C#N)c(C(F)(F)F)c2)cc1")
3.53
>>> observed_measurement("FC(F)(F)c1cccc(CNCC2CCN(CC3CCCCC3)CC2)c1")
-0.93
>>> observed_measurement("Oc1cccc(/C=N/Nc2ccnc3cc(Cl)ccc23)c1")
4.49
>>> observed_measurement("CC[C@H](C)CNC(=O)c1cncc(-c2ccc(CN(C)C3CCN(C)CC3)cc2)c1")
3.57
>>> observed_measurement("O=[N+]([O-])c1c(O)nc2c(c1O)CCC2")
4.52
>>> observed_measurement("COc1cc2nc(N(C)Cc3cc4c(Cl)cccc4s3)nc(N)c2cc1OC")
-0.54
>>> observed_measurement("Nc1nccc2ccc(-c3cccc(OCc4ccccc4)c3)cc12")
1.85
>>> observed_measurement("CN1CCC(N(Cc2ccc(-c3ccc(C(F)(F)F)cc3)cc2)C(=O)Cn2c(SCc3cccc(F)c3F)cc(=O)c3c2CCC3)CC1")
-1.29
>>> observed_measurement("CCC1CN2CCc3c([nH]c4ccccc34)C2CC1CC1=NCCc2c1[nH]c1ccccc21 (stereo not given)")
1.78
>>> observed_measurement("CCc1ccc(C2CCN(CCCCNC(=O)c3ccc(-c4ccc(C#N)cc4)cc3)CC2)c(OCCO)c1")
0.42
>>> observed_measurement("Cc1cc(NC(=O)c2cccs2)ccc1OC1CCN(Cc2ccccc2)C1 (stereo not given)")
0.25
>>> observed_measurement("c1cc(CNCCc2ccncc2)cc(-c2ccc(-c3nc4ccccc4[nH]3)cc2)c1")
1.46
>>> observed_measurement("Cc1ccc(NC(=O)N2CCN(CCCCCNC(=O)/C=C/c3ccc(Cl)c(Cl)c3)CC2)cc1C")
8.95
>>> observed_measurement("OCCCCCCNc1nc(NCc2ccccc2-c2ccc(C(F)(F)F)cc2)nc(N2CCNCC2)n1")
1.31
>>> observed_measurement("COc1cc(N(Cc2ccc(F)cc2)C(=O)c2ccc(-c3ccccc3)cc2)ccc1OCCN1CCCC1")
9.7
>>> observed_measurement("NC1=NC(c2ccccc2)(c2ccccc2)C(=O)N1CCCCc1ccccn1")
-0.54
>>> observed_measurement("FC(F)(F)c1cccc(CCNc2nccc(NCc3ccccc3Cl)n2)c1")
5.73
>>> observed_measurement("CCOc1ccc2ccccc2c1CNCCCCCCNCc1c(OCC)ccc2ccccc12")
7.3
>>> observed_measurement("CC1(C)NC(N)=NC(=N)N1OCc1cc(Cl)c(Cl)cc1CON1C(=N)N=C(N)NC1(C)C")
3.89
>>> observed_measurement("N=C1SC(=Cc2cn[nH]c2-c2ccc(F)cc2)C(=O)N1c1nccs1")
0.88
>>> observed_measurement("N=C(N)CCN(Cc1ccc(Cl)cc1)c1ccc(Cl)cc1")
0.7
>>> observed_measurement("Cc1ccc(-n2c(Sc3ncnc4sccc34)nnc2N2CCCC2)cc1")
2.72
>>> observed_measurement("Nc1cc(-c2ccc3ccccc3c2)nc2ccccc12")
31.2
>>> observed_measurement("O=C(N[C@@H](Cc1ccccc1)[C@H](O)CNC1CCOCC1)c1cc(C2CCCC2)cc(N2CCCCS2(=O)=O)c1")
3.67
>>> observed_measurement("Cc1ccc2nc(-c3ccc(C(=O)NCc4ccc(Cl)c(Cl)c4)cc3)[nH]c2c1C")
2.57
>>> observed_measurement("CCOC(=O)C1=C(C)NC2=C(C(=O)CCC2)C1c1cn(Cc2ccc(Cl)cc2Cl)nc1-c1ccccc1 (stereo not given)")
2.11
>>> observed_measurement("CN1CCC(NCc2ccc(-c3ccc(S(=O)(=O)NCc4ccccc4)c(F)c3)cc2)CC1")
12.7
>>> observed_measurement("O=c1cc(NCCC(CNCc2ccoc2)NCc2cc(Br)cc(Br)c2)[nH]c2ccccc12 (stereo not given)")
6.77
>>> observed_measurement("Oc1cccc(Nc2nc(NCC3CCCO3)c3ccccc3n2)c1 (stereo not given)")
27
>>> observed_measurement("CCOc1cc(C(=O)NC2CCN(Cc3ccccc3)CC2)ccc1-c1nc2cc(Cl)c(Cl)cc2[nH]1")
2.82
>>> observed_measurement("CCOc1ccc(C(C)NC(=O)C2COc3ccccc3O2)cc1OCC (stereo not given)")
2.23
>>> observed_measurement("COc1cc(Cc2cnc(N)nc2N)cc(OCCCCC2SC(=O)NC2=O)c1Br (stereo not given)")
6.08
>>> observed_measurement("Oc1ccc(CCNc2nc(NCc3ccccc3-c3cccc(Cl)c3)nc(N3CCNCC3)n2)cc1")
-2.47
>>> observed_measurement("N#Cc1ccc2c(c1)CCN(CCC1CCC(NC(=O)c3ccc(-c4ccccn4)s3)CC1)CC2 (stereo not given)")
13.3
>>> observed_measurement("CCC[C@@H]([C@@H](CC(C)C)C(=O)N[C@@H](CCCCNC(=O)c1cccc(OC)c1)C(=O)Nc1nccs1)N(O)C=O")
8.94
>>> observed_measurement("O=C(Nc1ccc2c(c1)CN(Cc1ccc(N3CCCC3)o1)CCC2)c1cncs1")
1.6
>>> observed_measurement("O=C(NCCCCN1CCC(c2ccc3c(c2O)CCCC3)CC1)c1ccc(NC(=O)c2ccc(Cl)cc2)cc1")
1.7
